tested-on: IGF 3P (Homo sapiens)
Construct: human IGF1R kinase domain residues M954-C1367; made in house; host or cells: baculovirus expression (insect cells)
Sequence (P08069 954-1367): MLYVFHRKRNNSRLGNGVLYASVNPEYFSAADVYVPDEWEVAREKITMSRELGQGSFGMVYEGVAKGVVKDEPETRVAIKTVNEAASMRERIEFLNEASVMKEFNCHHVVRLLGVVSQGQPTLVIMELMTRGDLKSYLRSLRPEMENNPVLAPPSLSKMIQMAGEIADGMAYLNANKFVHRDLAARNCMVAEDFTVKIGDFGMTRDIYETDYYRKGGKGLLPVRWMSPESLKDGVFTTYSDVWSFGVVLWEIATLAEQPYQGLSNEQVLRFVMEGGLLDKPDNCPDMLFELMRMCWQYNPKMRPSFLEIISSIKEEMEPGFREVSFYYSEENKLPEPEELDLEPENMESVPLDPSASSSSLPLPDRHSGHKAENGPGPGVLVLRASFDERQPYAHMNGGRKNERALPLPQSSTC
experiment: IGF1R kinase assay (LCCA), IGF 3P
Type: biochemical
study-conditions: IGF1R kinase LCCA assay
pIC50: −log10 of the molar value.
observation-type: pIC50

Brc1cnc(NCC(c2ccccc2)c2ccccc2)nc1Nc1cc(C2CC2)[nH]n1 [Example 329] | < 5.30
Cc1cc(Nc2cc(C3CC3)n[nH]2)nc(Nc2ccc(N(C)C)cc2)n1 [Example 213] | 5.30 to 6.30
Brc1cnc(Nc2cc(-c3ccccc3)n[nH]2)nc1Nc1cc(-c2ccccc2)n[nH]1 [Example 319] | < 5.30

(Q) Which pIC50 is reported with IGF 3P (Homo sapiens) for this entry: COc1ccccc1CNc1nc(C)cc(Nc2cc(C3CC3)[nH]n2)n1 [Example 207] ?
(A) 5.30 to 6.30

(Q) Okay, and Brc1cnc(Nc2ccc(Oc3ccccc3)cc2)nc1Nc1cc(C2CC2)[nH]n1 [Example 321] ?
(A) < 5.30

(Q) Another compound to look at: N#Cc1ccc(Nc2ncc(Br)c(Nc3cc(C4CC4)n[nH]3)n2)cc1 [Example 166]
(A) 5.30 to 6.30

(Q) Repeat with Clc1ccccc1CCNc1ncc(Br)c(Nc2cc(C3CC3)n[nH]2)n1 [Example 272]
(A) < 5.30

(Q) Again, but for CN(C)C(=O)CCc1ccc(Nc2ncc(Br)c(Nc3cc(C4CC4)n[nH]3)n2)cc1 [Example 76]
(A) 6.30 to 7.30

(Q) Now consider Cc1cc(Nc2cc(C3CC3)[nH]n2)nc(NCc2cc(-c3ccccc3Br)no2)n1 [Example 525] .
(A) 6.30 to 7.30

FYI, the data here is from patent US8211929B2.
